assay-info: Compound 1 and metabolite levels in pooled rat plasma, 2 week toxicology study
Format: in vivo
cond: rat, plasma, po, 100 mg/kg, compound 1 100 mg/kg PO once a day; Day 14; 24 hr; metabolites estimated by UV; read-out: Level in Rat Plasma
readout-type: concentration at 24 h (µg/mL)

* Nc1c(-c2nc3ccc(N4CCNCC4)cc3[nH]2)c(=O)[nH]c2cccc(F)c12 | 0.01
* C[N+]1([O-])CCN(c2ccc3nc(-c4c(N)c5c(F)cccc5[nH]c4=O)[nH]c3c2)CC1 | 0.102

###

assay-info: Compound 1 and metabolite levels in pooled rat plasma, 2 week toxicology study
Type: in vivo
cond: rat, plasma, po, 100 mg/kg, compound 1 100 mg/kg PO once a day; Day 1; 0 hr; metabolites estimated by UV; read-out: Level in Rat Plasma
Attribute: concentration at 0 h
readout-type: concentration at 0 h

- C[N+]1([O-])CCN(c2ccc3nc(-c4c(N)c5c(F)cccc5[nH]c4=O)[nH]c3c2)CC1 [Compound 2]: 0 ng/mL
- Nc1c(-c2nc3ccc(N4CCNCC4)cc3[nH]2)c(=O)[nH]c2cccc(F)c12 [Compound 3]: 0 ng/mL

###

assay-info: Compound 1 and metabolite levels in pooled rat plasma, 2 week toxicology study
Assay type: in vivo
cond: rat, plasma, po, 100 mg/kg, compound 1 100 mg/kg PO once a day; Day 14; 0 hr; metabolites estimated by UV; read-out: Level in Rat Plasma
readout-type: concentration at 0 h (ng/mL)

• Nc1c(-c2nc3ccc(N4CCNCC4)cc3[nH]2)c(=O)[nH]c2cccc(F)c12 = 15
• C[N+]1([O-])CCN(c2ccc3nc(-c4c(N)c5c(F)cccc5[nH]c4=O)[nH]c3c2)CC1 = 67
